# experimental_system: T1, Human BCMA (human, UniProt Q02223 1-54, limits assumed)
# T1 construct: Soluble analyte in SPR; construct not described; also called huBCMA; B-cell maturation antigen
# T1 sequence (looked up): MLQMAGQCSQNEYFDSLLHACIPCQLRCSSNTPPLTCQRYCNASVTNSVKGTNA
# experiment: SPR, IgG immobilised, 37 C
Known koff of a selection of binders
quantity: koff (s⁻¹)

[[record]]
binder = "L3.PY/L3.KY/H2.DY (antibody, V domains shown, IgG) VH: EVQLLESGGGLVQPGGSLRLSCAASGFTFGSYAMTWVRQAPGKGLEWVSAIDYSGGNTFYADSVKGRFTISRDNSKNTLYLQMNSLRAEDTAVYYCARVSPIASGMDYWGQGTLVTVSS VL: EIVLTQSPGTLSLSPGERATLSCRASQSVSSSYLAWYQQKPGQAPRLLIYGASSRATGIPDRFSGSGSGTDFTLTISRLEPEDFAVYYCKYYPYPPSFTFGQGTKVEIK"
unit_descriptor = "s⁻¹"
obs_value = 0.000642

[[record]]
binder = "L3.PY/L3.KY/H2.QL (antibody, V domains shown, IgG) VH: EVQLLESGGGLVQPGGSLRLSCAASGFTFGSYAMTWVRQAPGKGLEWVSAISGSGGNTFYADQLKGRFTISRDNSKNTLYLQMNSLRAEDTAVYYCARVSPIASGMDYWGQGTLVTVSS VL: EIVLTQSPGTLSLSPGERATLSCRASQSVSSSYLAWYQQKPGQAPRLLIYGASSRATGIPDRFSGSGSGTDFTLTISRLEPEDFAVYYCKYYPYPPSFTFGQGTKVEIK"
unit_descriptor = "s⁻¹"
obs_value = 0.00208

[[record]]
binder = "L3.PY/H2.YQ (antibody, V domains shown, IgG) VH: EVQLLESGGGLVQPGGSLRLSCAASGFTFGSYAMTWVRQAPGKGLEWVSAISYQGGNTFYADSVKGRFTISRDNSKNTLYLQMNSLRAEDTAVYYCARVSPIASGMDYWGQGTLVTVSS VL: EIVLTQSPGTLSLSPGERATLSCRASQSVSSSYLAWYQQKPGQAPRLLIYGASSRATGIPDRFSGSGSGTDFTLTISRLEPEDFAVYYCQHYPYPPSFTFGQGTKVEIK"
unit_descriptor = "s⁻¹"
obs_value = 0.00156

[[record]]
binder = "L3.PY/L1.FF/H3.YA (antibody, V domains shown, IgG) VH: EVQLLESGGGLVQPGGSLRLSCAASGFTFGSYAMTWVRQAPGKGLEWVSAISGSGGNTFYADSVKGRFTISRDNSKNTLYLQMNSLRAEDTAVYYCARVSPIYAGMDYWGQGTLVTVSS VL: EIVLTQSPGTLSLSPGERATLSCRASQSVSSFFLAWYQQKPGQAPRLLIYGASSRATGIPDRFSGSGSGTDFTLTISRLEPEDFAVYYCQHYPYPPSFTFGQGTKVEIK"
unit_descriptor = "s⁻¹"
obs_value = 0.0018

[[record]]
binder = "L3.PY/H3.AQ (antibody, V domains shown, IgG) VH: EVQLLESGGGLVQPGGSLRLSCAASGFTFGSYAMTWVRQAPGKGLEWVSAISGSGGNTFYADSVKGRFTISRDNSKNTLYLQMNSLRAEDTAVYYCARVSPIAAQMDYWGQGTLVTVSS VL: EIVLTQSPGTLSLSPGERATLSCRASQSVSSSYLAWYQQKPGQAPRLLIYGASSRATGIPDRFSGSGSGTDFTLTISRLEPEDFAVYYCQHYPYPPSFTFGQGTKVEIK"
unit_descriptor = "s⁻¹"
obs_value = 0.00173

